So I've got a bunch of compounds here, and I need their SHP2 degradation (%) 10 nM values.
# measuredTarget: SHP2 protein (Homo sapiens, UniProt Q06124)
# Sequence (Q06124 whole entry): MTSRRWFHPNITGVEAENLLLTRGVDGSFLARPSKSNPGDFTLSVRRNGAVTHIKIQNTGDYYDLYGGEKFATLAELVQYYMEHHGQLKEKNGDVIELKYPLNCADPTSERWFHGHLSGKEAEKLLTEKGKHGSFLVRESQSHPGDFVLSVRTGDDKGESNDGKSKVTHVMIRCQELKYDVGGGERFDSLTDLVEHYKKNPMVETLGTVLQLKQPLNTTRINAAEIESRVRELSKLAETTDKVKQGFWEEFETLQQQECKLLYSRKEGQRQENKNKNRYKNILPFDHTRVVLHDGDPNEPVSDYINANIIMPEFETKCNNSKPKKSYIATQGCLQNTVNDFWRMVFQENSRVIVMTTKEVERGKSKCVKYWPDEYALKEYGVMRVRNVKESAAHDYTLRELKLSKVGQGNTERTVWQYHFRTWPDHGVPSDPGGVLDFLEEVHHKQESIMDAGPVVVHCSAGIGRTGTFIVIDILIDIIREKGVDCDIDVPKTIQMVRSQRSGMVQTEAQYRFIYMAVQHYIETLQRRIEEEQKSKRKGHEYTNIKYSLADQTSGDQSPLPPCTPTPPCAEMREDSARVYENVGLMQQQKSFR
# testDescription: Measurement of SHP2 protein degradation in MV-4-11 cells (western blotting)
# Format: cell-based
# Design: endogenous in cells; host or cells: MV-4-11
# experimentalParameters: MV-4-11 cells, 10 nM, 24 hours
Give bare numbers, in %.

INSERT INTO measurements (chemsmiles, measuredtarget, measuredresult) VALUES
  ('Cc1ncsc1-c1ccc(CNC(=O)[C@@H]2C[C@@H](O)CN2C(=O)[C@@H](NC(=O)C2(F)CC2)C(C)(C)C)c(OCCCN2CCN(C(=O)CC(=O)Nc3cccc(Sc4cnc(N5CCC(C)(CN)CC5)cn4)c3Cl)[C@H](C)C2)c1', 'SHP2 protein (Homo sapiens, UniProt Q06124)', 31.6);

Here are 2 compounds. What values of SHP2 degradation (%) 10 nM were reported for them?
1. Cc1ncsc1-c1ccc(CNC(=O)[C@@H]2C[C@@H](O)CN2C(=O)[C@@H](NC(=O)C2(F)CC2)C(C)(C)C)c(OCCCC2CCN(C(=O)CC(=O)Nc3cccc(Sc4ncc(N5CCC(C)(CN)CC5)nc4N)c3Cl)CC2)c1
2. Cc1ncsc1-c1ccc(CNC(=O)[C@@H]2C[C@@H](O)CN2C(=O)[C@@H](NC(=O)C2(F)CC2)C(C)(C)C)c(OCCN2CCN(C(=O)CC(=O)Nc3cccc(Sc4cnc(N5CCC(C)(CN)CC5)cn4)c3Cl)CC2)c1

73.5
72
